Reference source: patent US20140213538A1

experimental_target: LPA/S1P GPCR of interest (Homo sapiens)
Sequence (Q92633 whole entry): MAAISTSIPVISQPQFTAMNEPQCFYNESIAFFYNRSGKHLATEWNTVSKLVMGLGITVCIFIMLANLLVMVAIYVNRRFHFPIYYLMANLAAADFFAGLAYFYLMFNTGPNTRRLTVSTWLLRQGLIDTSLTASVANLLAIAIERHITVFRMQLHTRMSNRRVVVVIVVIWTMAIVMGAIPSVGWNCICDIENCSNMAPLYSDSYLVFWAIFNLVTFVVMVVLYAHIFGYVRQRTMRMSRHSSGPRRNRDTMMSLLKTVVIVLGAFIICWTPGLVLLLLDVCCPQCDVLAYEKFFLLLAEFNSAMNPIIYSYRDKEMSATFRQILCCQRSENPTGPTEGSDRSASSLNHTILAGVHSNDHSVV
method_summary: Beta-Arrestin based assay (PathHunter)
readout_label: EC50

So what's the measured EC50 for this one? C[C@@H](OC(=O)Nc1c(-c2ccc(-c3ncc(C(=O)O)s3)cc2)nnn1C)c1ccccc1
> 0.5 µM

Now the same for Cc1nsc(-c2cc3sc(-c4cc(Cl)c(CC(=O)O)cc4F)cc3s2)c1NC(=O)O[C@H](C)c1ccccc1
> 0.5 µM

Now the same for C[C@@H](OC(=O)Nc1c(-c2cc3sc(C#CC4(C(=O)O)CC4)cc3s2)nnn1C)c1ccccc1
< 0.05 µM

Now the same for Cc1cc(CC(=O)O)ccc1-c1cc2sc(-c3snc(C)c3NC(=O)O[C@H](C)c3ccccc3)cc2s1
0.05 to 0.5 µM
